target: Hsp90α (Homo sapiens); assay: biochemical; conditions: FP competition, 6 nM Cy3B-GM, 10 nM protein, 4° C. for 24 h
pIC50: −log10 of the molar value.
Consider the following molecules and their measured pIC50 readings.

Example entries begin here.
Recorded pIC50 of "CC(C)NCCCn1c(Sc2ccc(Cl)cc2Cl)nc2c(N)nccc21" , please.
5.04

Another molecule to check: CC(O)CNCCn1c(Sc2ccc(Cl)cc2Cl)nc2c(N)ncnc21 (centres unmarked)
4.50

Another molecule to check: "CC(C)NCCCn1c(Sc2ccc(Cl)cc2I)nc2c(N)ncnc21"
5.47

Another molecule to check: "C#CCCCn1c(Sc2c(C)cc(C)cc2C)nc2c(N)ncnc21"
< 3.60

Another molecule to check: "C#CCCCn1c(Sc2cc(Br)cc(Br)c2)nc2c(N)ncnc21"
< 4.00

Another molecule to check: "C[C@@H](O)CNCCn1c(Sc2ccc(Cl)cc2Cl)nc2c(N)ncnc21"
4.25

Another molecule to check: COC(C)CNCCn1c(Sc2cc(Cl)cc(Cl)c2)nc2c(N)ncnc21 (centres unmarked) [SO-III-75A]
4.40

Another molecule to check: "C#CCCCn1c(Sc2ccc(-n3cccc3)cc2)nc2c(N)ncnc21"
< 4.30

New cases:
Recorded pIC50 of "CC(C)(CO)NCCn1c(Sc2ccc(Cl)cc2Cl)nc2c(N)ncnc21" , please.
4.54

Another molecule to check: "C#CCCCn1cnc(N)c2nc(Sc3cc(Cl)cc(Cl)c3)nc1-2"
< 4.00

Another molecule to check: "C#CCCCn1c(Sc2cccc3ccccc23)nc2c(N)ncnc21"
< 4.00

Another molecule to check: "CC(C)NCCCn1c(Sc2cc(Cl)cc(-c3cn[nH]c3)c2)nc2c(N)ncnc21"
4.80

Another molecule to check: "C#CCCCn1c(Cc2cccc(Cl)c2Cl)nc2c(N)ncnc21"
< 5.00

Another molecule to check: "C#CCCCn1cnc(N)c2nc(Sc3ccccc3Cl)nc1-2"
< 4.00

Another molecule to check: "CC(C)NCCCn1c(Sc2cccc3ccccc23)nc2c(N)nccc21"
< 4.30

Another molecule to check: "C#CCCCn1c(Sc2ccc(OC)cc2)nc2c(N)ncnc21"
< 4.00

Another molecule to check: "C#CCCCn1cnc(N)c2nc(Sc3ccccc3OC(F)(F)F)nc1-2"
< 4.00

Another molecule to check: CC(O)C#Cc1cc(Cl)cc(Sc2nc3c(N)ncnc3n2CCCNC(C)C)c1 (centres unmarked)
< 4.30

Another molecule to check: "Nc1ncnc2c1nc(Sc1cc(Cl)cc(Cl)c1)n2CCC(F)(F)F"
< 4.30

Another molecule to check: Nc1ncn(CCCCC(F)(F)F)c2nc(Sc3cc(Cl)cc(Cl)c3)nc1-2 [PDP-109B]
< 4.00

Another molecule to check: "CC(C)NCCCn1c(Sc2cc(Cl)cc(C#CCO)c2)nc2c(N)ncnc21"
< 4.30

Another molecule to check: "C#CCCCn1c(Cc2ccc(Cl)cc2Cl)nc2c(N)ncnc21"
< 5.00

Another molecule to check: "Nc1ncnc2c1nc(Sc1ccc(Cl)cc1Cl)n2CCc1ccncc1"
< 4.30

Another molecule to check: "C#CCCCn1cnc(N)c2nc(Sc3c(C)cc(C)cc3C)nc1-2"
< 4.00

----------
Target: Trap-1 (Homo sapiens, UniProt Q12931)
Sequence (Q12931 60-704): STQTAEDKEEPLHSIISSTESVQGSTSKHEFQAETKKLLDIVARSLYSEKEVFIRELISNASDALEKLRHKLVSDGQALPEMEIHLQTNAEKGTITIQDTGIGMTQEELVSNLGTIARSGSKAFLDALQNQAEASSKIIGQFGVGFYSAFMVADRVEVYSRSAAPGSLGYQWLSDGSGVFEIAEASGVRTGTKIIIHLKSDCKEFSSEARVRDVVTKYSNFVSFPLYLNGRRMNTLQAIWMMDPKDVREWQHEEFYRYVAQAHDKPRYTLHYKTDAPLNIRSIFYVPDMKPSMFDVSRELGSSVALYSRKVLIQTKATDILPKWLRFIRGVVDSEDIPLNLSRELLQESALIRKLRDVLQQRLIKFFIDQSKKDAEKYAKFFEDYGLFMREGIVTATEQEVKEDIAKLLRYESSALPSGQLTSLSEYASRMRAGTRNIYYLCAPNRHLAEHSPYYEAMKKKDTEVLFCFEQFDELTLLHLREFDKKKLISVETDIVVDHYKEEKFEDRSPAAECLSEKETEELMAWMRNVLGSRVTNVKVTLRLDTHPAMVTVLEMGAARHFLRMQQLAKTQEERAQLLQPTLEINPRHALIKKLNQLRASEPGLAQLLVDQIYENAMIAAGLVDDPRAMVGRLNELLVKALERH
Experiment: biochemical
measured-quantity: IC50 (µM)

Example entries begin here.
Requested read-out IC50, target or system Trap-1 (Homo sapiens, UniProt Q12931), entry "C#CCCCn1c(Sc2ccc(Br)cn2)nc2c(N)ncnc21"
2.18

Another compound to check: "Nc1ncnc2c1nc(Sc1cc(Cl)cc(Cl)c1)n2CCC(F)(F)F"
10.1

1 = N#CCCCn1c(Sc2cc(Cl)cc(Cl)c2)nc2c(N)ncnc21 [PDP-93A]
2 = C#CCCCn1c(Sc2ccc(C(F)(F)F)cc2C(F)(F)F)nc2c(N)ncnc21
3 = C#CCCCn1c(Sc2cc(Br)cc(OC(F)(F)F)c2)nc2c(N)ncnc21 [PDP-120A]
Which order do these items take when sorted by rising IC50? List them. Use the labels to give the requested order.
3, 1, 2
(3: 1.87 µM, 1: 4.47 µM, 2: 7.64 µM)

----------
target: Grp94 (Canis lupus familiaris); settings: read-out: Grp94; FP competition, 6 nM Cy3B-GM, 10 nM protein, 4° C. for 24 h
Sequence (P41148 with tags, fused parts or gaps DELINS287-327GGGG): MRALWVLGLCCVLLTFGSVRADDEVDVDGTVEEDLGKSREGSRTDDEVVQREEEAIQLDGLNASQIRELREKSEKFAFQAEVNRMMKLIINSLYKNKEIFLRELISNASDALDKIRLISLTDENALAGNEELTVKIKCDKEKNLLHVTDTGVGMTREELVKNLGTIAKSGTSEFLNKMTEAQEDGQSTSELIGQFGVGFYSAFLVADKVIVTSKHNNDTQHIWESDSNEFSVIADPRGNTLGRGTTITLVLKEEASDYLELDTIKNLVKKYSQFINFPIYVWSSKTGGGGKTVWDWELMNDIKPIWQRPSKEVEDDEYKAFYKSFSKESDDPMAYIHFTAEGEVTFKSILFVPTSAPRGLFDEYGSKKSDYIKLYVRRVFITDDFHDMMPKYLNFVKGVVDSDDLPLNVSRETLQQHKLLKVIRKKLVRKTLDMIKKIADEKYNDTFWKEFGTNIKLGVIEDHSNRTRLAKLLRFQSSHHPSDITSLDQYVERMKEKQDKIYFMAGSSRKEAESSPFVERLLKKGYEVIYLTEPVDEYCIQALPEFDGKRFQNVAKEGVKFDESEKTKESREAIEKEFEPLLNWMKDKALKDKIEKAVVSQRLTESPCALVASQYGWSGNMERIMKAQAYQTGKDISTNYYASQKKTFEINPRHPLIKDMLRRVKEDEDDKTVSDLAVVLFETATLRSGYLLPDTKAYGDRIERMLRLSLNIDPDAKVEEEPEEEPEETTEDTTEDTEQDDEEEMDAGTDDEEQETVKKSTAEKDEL
measured-quantity: IC50 (nM)

Requested read-out IC50, target or system Grp94 (Canis lupus familiaris), entry "C#CCCCn1c(Sc2ccc(C#N)c(C(F)(F)F)c2)nc2c(N)ncnc21"
2410

Another compound to check: "Nc1ncnc2c1nc(Sc1cc(Cl)cc(I)c1)n2CCc1cccnc1"
860

A = CC(C)NCCCn1c(Sc2cc(Cl)cc(-c3ccn[nH]3)c2)nc2c(N)ncnc21
B = CC(C)NCCCn1c(Sc2cc(Cl)cc(-c3cc[nH]c3)c2)nc2c(N)ncnc21
C = C#CCCCn1c(S(=O)(=O)c2ccc(Cl)cc2Cl)nc2c(N)ncnc21 [HJP-V-62T]
D = C#CCCCn1cnc(N)c2nc(Sc3cc(Cl)c(Cl)cc3Cl)nc1-2
Order these by IC50, descending, and give the full ranking. Use the labels to give the requested order.
C, D, A, B
(C: 4700 nM, D: 2080 nM, A: 1200 nM, B: 830 nM)

----------
target: Hsp90α (Homo sapiens, UniProt P07900); assay: Hsp90 FP saturation binding assay of FP probes; details: saturation binding of FP probe; read-out: apparent Kd
measured-quantity: Kd (nM)
The answer is to be given in nM; state only the numeric part.

Recorded Kd of C[C@@H](NCCCn1c(Sc2cc(Cl)cc(Cl)c2)nc2c(N)ncnc21)C1CC1 [Compound 40] , please.
3.9

----------
molecular target: Hsp90α (Homo sapiens, UniProt P07900); assay: biochemical; settings: FP competition, 6 nM Cy3B-GM, 10 nM protein, 4° C. for 24 h
pIC50: −log10 of the molar value.
measured-quantity: pIC50

Example entries begin here.
Requested read-out pIC50, target or system Hsp90α (Homo sapiens, UniProt P07900), entry "C#CCN(CCO)CCn1c(Sc2ccc(Cl)cc2Cl)nc2c(N)ncnc21"
< 4.30

Another compound to check: "C/C=C/c1cc(Cl)cc(Sc2nc3c(N)ncnc3n2CCCNC(C)C)c1"
< 4.30

Another compound to check: CC#CCn1cnc(N)c2nc(Sc3cc(Cl)cc(Cl)c3)nc1-2 [PDP-102B]
< 4.00

Another compound to check: "CC(C)NCCCn1c(Sc2cc(Cl)cc(/C=C/C(C)(C)C)c2)nc2c(N)ncnc21"
4.85

Another compound to check: "CC(C)NCCCn1c(Sc2cc(Cl)cc(/C=C/C3CC3)c2)nc2c(N)ncnc21"
< 4.30

New cases:
Requested read-out pIC50, target or system Hsp90α (Homo sapiens, UniProt P07900), entry "C#CCN(CCO)CCCn1c(Sc2cc(Cl)cc(Cl)c2)nc2c(N)ncnc21"
4.58

Another compound to check: Nc1ncn(Cc2ccccc2)c2nc(Sc3cc(Cl)cc(Cl)c3)nc1-2 [PDP-107B]
< 4.00

Another compound to check: "CC(C)NCCCn1c(Sc2cc(Cl)cc(-c3cccc([N+](=O)[O-])c3)c2)nc2c(N)ncnc21"
4.33

Another compound to check: "CC(C)(C)CNCCCn1c(Sc2cc(Cl)cc(I)c2)nc2c(N)ncnc21"
< 4.60
